src = patent US20220064275A1

Each item that follows carries a reported pKd.
target: T1, human GARP-proTGFβ1 complex (human, UniProt Q14392 20-627; P01137 30-390); test: MSD-SET, solution equilibrium titration
T1 construct: also called hGARP-proTGFβ1; hGARP
T1 sequence (Q14392 20-627, chain 1 of 2): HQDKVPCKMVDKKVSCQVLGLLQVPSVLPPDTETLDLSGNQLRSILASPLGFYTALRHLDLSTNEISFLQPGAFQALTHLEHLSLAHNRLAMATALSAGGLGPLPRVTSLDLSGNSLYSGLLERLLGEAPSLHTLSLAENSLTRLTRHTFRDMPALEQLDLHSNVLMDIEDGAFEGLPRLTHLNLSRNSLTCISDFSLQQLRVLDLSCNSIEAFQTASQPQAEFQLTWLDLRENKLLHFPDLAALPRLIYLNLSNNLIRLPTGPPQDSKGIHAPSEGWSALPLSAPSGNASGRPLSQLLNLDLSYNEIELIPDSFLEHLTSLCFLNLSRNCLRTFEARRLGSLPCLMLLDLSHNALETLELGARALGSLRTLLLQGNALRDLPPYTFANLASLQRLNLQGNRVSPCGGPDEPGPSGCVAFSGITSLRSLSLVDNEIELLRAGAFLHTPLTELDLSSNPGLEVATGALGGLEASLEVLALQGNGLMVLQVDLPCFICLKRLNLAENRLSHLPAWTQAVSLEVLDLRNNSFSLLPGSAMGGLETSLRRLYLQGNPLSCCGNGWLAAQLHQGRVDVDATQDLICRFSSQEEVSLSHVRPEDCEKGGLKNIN
T1 sequence (P01137 30-390, chain 2 of 2): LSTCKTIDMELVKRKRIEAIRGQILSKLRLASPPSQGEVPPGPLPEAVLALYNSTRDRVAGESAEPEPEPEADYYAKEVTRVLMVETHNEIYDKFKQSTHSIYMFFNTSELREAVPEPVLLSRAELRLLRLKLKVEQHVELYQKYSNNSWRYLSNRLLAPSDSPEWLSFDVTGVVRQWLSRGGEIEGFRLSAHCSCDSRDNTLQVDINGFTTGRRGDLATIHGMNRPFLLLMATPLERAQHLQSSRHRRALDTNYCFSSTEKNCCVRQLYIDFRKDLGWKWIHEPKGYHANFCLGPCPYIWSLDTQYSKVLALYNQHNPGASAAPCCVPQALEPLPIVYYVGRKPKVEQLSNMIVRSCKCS
Worth noting: pKd values are minus log10 of concentrations stated in mol/L.

• Ab4 (antibody, IgG4, V domains shown, also called parental lead antibody of Ab6) VH: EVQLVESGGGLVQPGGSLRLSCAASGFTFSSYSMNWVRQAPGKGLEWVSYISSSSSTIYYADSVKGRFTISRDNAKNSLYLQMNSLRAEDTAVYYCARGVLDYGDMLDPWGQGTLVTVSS VL: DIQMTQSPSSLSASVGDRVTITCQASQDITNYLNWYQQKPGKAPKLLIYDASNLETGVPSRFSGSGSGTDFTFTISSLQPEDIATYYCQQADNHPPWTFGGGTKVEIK = 8.60

-- ask For the binder shown here, Ab26 (antibody, IgG4, V domains shown) VH: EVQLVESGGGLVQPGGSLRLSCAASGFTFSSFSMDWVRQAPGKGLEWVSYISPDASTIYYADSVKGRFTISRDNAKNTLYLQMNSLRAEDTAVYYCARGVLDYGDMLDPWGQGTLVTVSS VL: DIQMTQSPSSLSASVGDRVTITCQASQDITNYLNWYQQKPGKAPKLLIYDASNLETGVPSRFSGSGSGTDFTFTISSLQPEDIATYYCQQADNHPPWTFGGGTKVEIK , give the reported pKd.
-- reply 10.85

-- ask How about Ab2 (antibody, human IgG4 S228P, kappa, V domains shown) VH: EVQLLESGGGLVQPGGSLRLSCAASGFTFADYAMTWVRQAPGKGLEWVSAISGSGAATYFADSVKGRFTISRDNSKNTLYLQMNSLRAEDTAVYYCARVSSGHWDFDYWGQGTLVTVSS VL: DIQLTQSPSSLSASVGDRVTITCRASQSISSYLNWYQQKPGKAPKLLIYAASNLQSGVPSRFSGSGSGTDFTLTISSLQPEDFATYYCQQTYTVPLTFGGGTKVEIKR ?
-- reply 8.85
